# assayed-target: human V1a receptor (Homo sapiens)
# Sequence (P37288 whole entry): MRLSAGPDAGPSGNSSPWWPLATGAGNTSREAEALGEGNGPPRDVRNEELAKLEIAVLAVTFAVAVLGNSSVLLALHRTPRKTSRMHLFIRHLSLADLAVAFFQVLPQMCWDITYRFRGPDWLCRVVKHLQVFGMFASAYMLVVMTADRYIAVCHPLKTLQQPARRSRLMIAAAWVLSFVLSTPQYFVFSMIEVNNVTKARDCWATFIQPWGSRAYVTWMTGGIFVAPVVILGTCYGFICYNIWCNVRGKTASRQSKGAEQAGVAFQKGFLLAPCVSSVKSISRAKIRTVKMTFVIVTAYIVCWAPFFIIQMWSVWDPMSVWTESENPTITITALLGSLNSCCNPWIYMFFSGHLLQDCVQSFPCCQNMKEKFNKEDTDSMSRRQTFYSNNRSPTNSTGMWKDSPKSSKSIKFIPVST
# experiment-notes: V1a binding assay (3H-AVP displacement, HEK-293 membranes)
# Parameters: expressed in transfected cells; host or cells: HEK-293 (membranes)
measure-name: IC50 (nM)

Use the examples below as a reference point.
compound	assayed-target	unit-name	IC50
CC(C)(NC(=S)N1CCC(n2c(=O)n(CCCN3CCCCC3)c3ccccc32)CC1)c1ccccc1	human V1a receptor (Homo sapiens)	nM	250
CC(Cc1ccc(Cl)cc1)NC(=S)N1CCC(n2c(=O)[nH]c3ccccc32)CC1 (stereo not drawn)	human V1a receptor (Homo sapiens)	nM	390
CC(C)N(CCCn1c(=O)n(C2CCN(C(=S)NC(c3ccccc3)c3ccccc3)CC2)c2ccccc21)C1CCCCC1	human V1a receptor (Homo sapiens)	nM	147
O=c1n(CCCN2CCC(N3CCCCC3)CC2)c2ccccc2n1C1CCN(C(=S)NC(c2ccccc2)c2ccccc2)CC1	human V1a receptor (Homo sapiens)	nM	80

A: CCCN(CCC)CCCn1c(=O)n(C2CCN(C(=S)NC(c3ccccc3)c3ccccc3)CC2)c2ccccc21
B: NCCCCn1c(=O)n(C2CCN(C(=S)NC(c3ccccc3)c3ccccc3)CC2)c2ccccc21
Exercise: Hi team, can someone confirm which has the larger IC50: A or B ? Thanks. Refer to your chosen entry by its label in the reply.
Key: B
(B: 24 nM, A: 16 nM)
